system: DLD1 NRF2-WT; experiment: drug sensitivity score (DSS) viability (DSS score); higher = more sensitive; extreme values may be limits of the assay; conditions: 72 h; CellTiter-Glo viability
Entries and their drug sensitivity score
Answer as a number with no unit attached.

| compound | drug sensitivity score |
| --- | --- |
| CO[C@H]1CC[C@H](N2C(=O)CNc3ncc(-c4ccc(C(C)(C)O)nc4)nc32)CC1 | 4.6 |
| C=CC(=O)N1CC/C(=C\c2ccc(F)c([N+](=O)[O-])c2)C(=O)/C(=C/c2ccc(F)c([N+](=O)[O-])c2)C1 | 27.9 |

(Q) Record Cc1ccc(NC(=O)c2ccc(CN3CCN(C)CC3)cc2)cc1Nc1nc(-c2cccnc2)cs1 : what is its drug sensitivity score with DLD1 NRF2-WT?
(A) 6.7

(Q) Report drug sensitivity score for COc1cc2c(Oc3ccc(NC(=O)C4(C(=O)Nc5ccc(F)cc5)CC4)cc3F)ccnc2cc1OCCCN1CCOCC1 tested on DLD1 NRF2-WT.
(A) 2.1

(Q) Give recorded drug sensitivity score with DLD1 NRF2-WT for the following compound: Nc1cc(F)ccc1NC(=O)c1ccc(CNC(=O)/C=C/c2cccnc2)cc1 [Chidamide]
(A) 0.6

(Q) Query drug sensitivity score on DLD1 NRF2-WT for N.N.[Cl][Pt][Cl] [Cisplatin]
(A) 5.2

(Q) Entry O=C(O)c1ccc(-c2c[nH]c3ncc(-c4ccccc4)cc23)cc1C1CCCC1 , system DLD1 NRF2-WT: what drug sensitivity score was measured?
(A) 12.1

(Q) Give the reported drug sensitivity score for C=CC(=O)Nc1cccc(Nc2nc(Nc3ccc(OCCOC)cc3)ncc2F)c1 (system: DLD1 NRF2-WT).
(A) 3.2

(Q) Look up drug sensitivity score with DLD1 NRF2-WT for this compound: Cc1ccc(C(=O)N(CCCN)[C@@H](c2oc3cc(Cl)ccc3c(=O)c2Cc2ccccc2)C(C)C)cc1
(A) 12.7

###

system: DLD1 NRF2-GOF; experiment: TC50 cytotoxicity; higher = less toxic; settings: 72 h; CellTox Green cytotoxicity
property.label: TC50 cytotoxicity

| compound | property.label | reading |
| --- | --- | --- |
| CC[C@H](CC#N)OC(=O)N[C@@H](C)c1cccc(NC(=O)Nc2ccc(-c3cnco3)c(OC)c2)c1 | TC50 cytotoxicity | > 10 µM |

(Q) Recorded TC50 cytotoxicity for CS(=O)(=O)c1ccc(-c2cnc(N)c(C(=O)Nc3ccccc3)n2)cc1 , please?
(A) > 10 µM

(Q) What value of TC50 cytotoxicity has been reported for the following compound? NC(=O)N1CCC(CC(=O)N2CCC([C@H]3c4ncc(Br)cc4CCc4cc(Cl)cc(Br)c43)CC2)CC1
(A) 24.2 µM

(Q) I have this compound here, COCCNCc1ccc(-c2cc3nccc(Oc4ccc(NC(=S)NC(=O)Cc5ccc(F)cc5)cc4F)c3s2)nc1 , and I need its recorded TC50 cytotoxicity.
(A) > 2.5 µM

(Q) Consider the compound shown here: C[C@@H]1CCN(C(=O)CC#N)C[C@@H]1N(C)c1ncnc2[nH]ccc12 What is its recorded TC50 cytotoxicity?
(A) > 5 µM

(Q) Which TC50 cytotoxicity reading was recorded for the compound CN1CCN(C2CCN(C(=O)Nc3cc(Oc4ccc(NC(=O)C5(C(=O)Nc6ccc(F)cc6)CC5)c(F)c4)ccn3)CC2)CC1 ?
(A) > 2.5 µM

(Q) Would you mind telling me what TC50 cytotoxicity value was observed for COc1cc([C@@H]2c3cc4c(cc3[C@@H](O[C@@H]3O[C@@H]5CO[C@@H](C)O[C@H]5[C@H](O)[C@H]3O)[C@H]3COC(=O)[C@H]23)OCO4)cc(OC)c1O [Etoposide] ?
(A) > 10 µM
